- assayTarget: Avi-KRAS G12C (2-169) GTP/RAF1 RBD-3xFLAG (51-131) (Homo sapiens, UniProt P01116, G12C)
- Construct: Avi-KRAS G12C (2-169)
- Sequence (P01116 2-169 isoform P01116-2 G12C): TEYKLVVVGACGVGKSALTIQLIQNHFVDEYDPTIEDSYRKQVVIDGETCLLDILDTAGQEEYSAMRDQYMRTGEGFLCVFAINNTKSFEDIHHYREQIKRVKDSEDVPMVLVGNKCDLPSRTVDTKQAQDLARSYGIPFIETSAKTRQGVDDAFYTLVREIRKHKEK
- methodSummary: Raf1-KRAS G12C-GTP disruption HTRF assay (Biological Example 3)
- Assay type: binding
- studyConditions: KRAS G12C-GTP / RAF1 RBD HTRF
quantity: IC50

// IC50 lookup, molecule = CCN(c1nc(OC[C@@]23CCCN2C[C@H](F)C3)nc2c(F)c(-c3ccc(F)c4sc(N)c(C#N)c34)c(C(F)(F)F)cc12)[C@H]1CCN(c2nccs2)C1 [Compound 973] , result: 100 to 1000 nM

Others:
// IC50 lookup, molecule = CN(c1nc(OC[C@@]23CCCN2C[C@H](F)C3)nc2c(F)c(-c3ccc(F)c4sc(N)c(C#N)c34)c(C(F)(F)F)cc12)[C@@H]1CCCc2ccncc21 (atropisomer, axis not shown) [Compound 972] , result: 100 to 1000 nM

====

pIC50: recorded values
- assayTarget: Avi-KRAS WT (1-169) GppNHp/RAF1 RBD-3xFLAG (52-151) (Homo sapiens)
- Construct: Avi-KRAS WT (1-169)
- Sequence (P01116 1-169 isoform P01116-2): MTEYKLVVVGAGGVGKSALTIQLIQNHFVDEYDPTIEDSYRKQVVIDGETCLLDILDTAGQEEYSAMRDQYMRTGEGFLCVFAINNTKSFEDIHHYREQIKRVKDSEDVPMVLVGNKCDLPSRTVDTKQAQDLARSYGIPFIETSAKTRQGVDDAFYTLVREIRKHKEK
- methodSummary: Raf1-KRAS WT-GppNHP disruption HTRF assay (Biological Example 1)
- Type: binding
- studyConditions: KRAS WT-GppNHp/RAF1 RBD HTRF
pIC50: −log10 of the molar value.

Solved cases below.
// pIC50 lookup, molecule = N#Cc1cnn2c1CN(c1nc(OC[C@@]34CCCN3C[C@H](F)C4)nc3c(F)c(-c4ccc(F)c5sc(N)c(C#N)c45)c(C(F)(F)F)cc13)CC2 , result: 6.00 to 7.00

// pIC50 lookup, molecule = CC(=O)N1CC(N(C)c2nc(OCC34CCCN3CC(F)C4)nc3c(F)c(-c4ccc(F)c5sc(N)c(C#N)c45)c(C(F)(F)F)cc23)CC1C (stereo not drawn) , result: 6.00 to 7.00

// pIC50 lookup, molecule = CCN(c1nc(OC[C@@]23CCCN2C[C@H](F)C3)nc2c(F)c(-c3ccc(F)c4sc(N)c(C#N)c34)c(C(F)(F)F)cc12)[C@@H]1CCN(C(=O)N(C)C)[C@@H]1C , result: 6.00 to 7.00

// pIC50 lookup, molecule = N#Cc1c(N)sc2c(F)ccc(-c3c(C(F)(F)F)cc4c(N5C6CC5CS(=O)(=O)C6)nc(OC[C@@]56CCCN5C[C@H](F)C6)nc4c3F)c12 , result: 6.00 to 7.00

// pIC50 lookup, molecule = CC(=O)N1CCC2[C@H]1CCCN2c1nc(OC[C@@]23CCCN2C[C@H](F)C3)nc2c(F)c(-c3ccc(F)c4sc(N)c(C#N)c34)c(C(F)(F)F)cc12 (stereo partly drawn) , result: 6.00 to 7.00

// pIC50 lookup, molecule = N#Cc1c(N)sc2c(F)ccc(-c3c(C(F)(F)F)cc4c(N5C[C@@H]6[C@H]5CCN6C(=O)C5CC5)nc(OC[C@@]56CCCN5C[C@H](F)C6)nc4c3F)c12 , result: 5.00 to 6.00

// pIC50 lookup, molecule = N#Cc1c(N)sc2c(F)ccc(-c3c(C(F)(F)F)cc4c(N5CCn6nc(C7CC7)cc6C5)nc(OC[C@@]56CCCN5C[C@H](F)C6)nc4c3F)c12 , result: < 5.00

// pIC50 lookup, molecule = CC(=O)N1C[C@H](N(C)c2nc(OC[C@@]34CCCN3C[C@H](F)C4)nc3c(F)c(-c4ccc(F)c5sc(N)c(C#N)c45)c(C(F)(F)F)cc23)C[C@H]1C , result: 6.00 to 7.00

Others:
// pIC50 lookup, molecule = CCN(c1nc(OC[C@@]23CCCN2C[C@H](F)C3)nc2c(F)c(-c3ccc(F)c4sc(N)c(C#N)c34)c(C(F)(F)F)cc12)[C@H]1CCN(C(=O)OC)C1 [Compound 394] , result: > 7.00

// pIC50 lookup, molecule = C[C@@H]1[C@H](N(C)c2nc(OC[C@@]34CCCN3C[C@H](F)C4)nc3c(F)c(-c4ccc(F)c5sc(N)c(C#N)c45)c(C(F)(F)F)cc23)CCN1C(=O)N(C)C , result: 6.00 to 7.00

// pIC50 lookup, molecule = N#Cc1c(N)sc2c(F)ccc(-c3c(C(F)(F)F)cc4c(N5CCO[C@H]6C[C@H]65)nc(OC[C@@]56CCCN5C[C@H](F)C6)nc4c3F)c12 , result: 6.00 to 7.00

// pIC50 lookup, molecule = CCN(c1nc(OC[C@@]23CCCN2C[C@H](F)C3)nc2c(F)c(-c3ccc(F)c4sc(N)c(C#N)c34)c(C(F)(F)F)cc12)[C@H]1CCN(C(=O)C2(F)CC2)C1 (atropisomer, axis not shown) , result: 6.00 to 7.00

// pIC50 lookup, molecule = CCN(c1nc(OC[C@@]23CCCN2C[C@H](F)C3)nc2c(F)c(-c3ccc(F)c4sc(N)c(C#N)c34)c(C(F)(F)F)cc12)[C@H]1CCN(C(=O)N2CCOCC2)C1 (atropisomer, axis not shown) , result: > 7.00

// pIC50 lookup, molecule = CCN(c1nc(OC[C@@]23CCCN2C[C@H](F)C3)nc2c(F)c(-c3ccc(F)c4sc(N)c(C#N)c34)c(C(F)(F)F)cc12)[C@@H]1C[C@@H]2CCC(=O)N2C1 , result: 6.00 to 7.00

// pIC50 lookup, molecule = C[C@@H]1[C@H](N(C)c2nc(OC[C@@]34CCCN3C[C@H](F)C4)nc3c(F)c(-c4ccc(F)c5sc(N)c(C#N)c45)c(C(F)(F)F)cc23)CC(=O)N1C , result: 6.00 to 7.00

// pIC50 lookup, molecule = CCC(=O)N1CC[C@@H](N(CC)c2nc(OC[C@@]34CCCN3C[C@H](F)C4)nc3c(F)c(-c4ccc(F)c5sc(N)c(C#N)c45)c(Cl)cc23)[C@@H]1C , result: 6.00 to 7.00

// pIC50 lookup, molecule = N#Cc1c(N)sc2c(F)ccc(-c3c(C(F)(F)F)cc4c(N5CCc6oncc6C5)nc(OC[C@@]56CCCN5C[C@H](F)C6)nc4c3F)c12 , result: 5.00 to 6.00

// pIC50 lookup, molecule = CCN(c1nc(OC[C@@]23CCCN2C[C@H](F)C3)nc2c(F)c(-c3ccc(F)c4sc(N)c(C#N)c34)c(C(F)(F)F)cc12)[C@@H]1C[C@@H](C)N(C(=O)N(C)C)C1 (atropisomer, axis not shown) , result: 6.00 to 7.00

// pIC50 lookup, molecule = N#Cc1c(N)sc2c(F)ccc(-c3c(C(F)(F)F)cc4c(N5CC6COC[C@H]6C5)nc(OC[C@@]56CCCN5C[C@H](F)C6)nc4c3F)c12 (stereo partly drawn) , result: 6.00 to 7.00

// pIC50 lookup, molecule = N#Cc1c(N)sc2c(F)ccc(-c3c(C(F)(F)F)cc4c(N5C[C@H]6C[C@@H]5CS6(=O)=O)nc(OC[C@@]56CCCN5C[C@H](F)C6)nc4c3F)c12 , result: 6.00 to 7.00

// pIC50 lookup, molecule = N#Cc1c(N)sc2c(F)ccc(-c3c(C(F)(F)F)cc4c(N5C[C@@H]6CC[C@H]5CN6C(=O)C5CC5)nc(OC[C@@]56CCCN5C[C@H](F)C6)nc4c3F)c12 , result: 6.00 to 7.00

====

pIC50: recorded values
- assayTarget: Avi-KRAS G12D (1-169) GppNHp/RAF1 RBD-3xFLAG (52-151) (Homo sapiens, UniProt P01116, G12D)
- Construct: Avi-KRAS G12D (1-169)
- Sequence (P01116 1-169 isoform P01116-2 G12D): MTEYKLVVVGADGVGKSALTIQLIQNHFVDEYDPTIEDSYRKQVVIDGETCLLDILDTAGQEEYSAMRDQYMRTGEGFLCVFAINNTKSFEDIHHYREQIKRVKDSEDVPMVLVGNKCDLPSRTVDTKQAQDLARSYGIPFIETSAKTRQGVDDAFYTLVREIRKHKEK
- methodSummary: Raf1-KRAS G12D-GppNHP disruption HTRF assay (Biological Example 1)
- Format: binding
- studyConditions: KRAS G12D, GppNHp-loaded; class symbols
pIC50: −log10 of the molar value.

Solved cases below.
// pIC50 lookup, molecule = CCN(c1nc(OC[C@@]23CCCN2C[C@H](F)C3)nc2c(F)c(-c3ccc(F)c4sc(N)c(C#N)c34)c(C(F)(F)F)cc12)[C@H]1CC(=O)N(C2CC2)C1 (atropisomer, axis not shown) , result: > 7.00

// pIC50 lookup, molecule = CCN(c1nc(OC[C@@]23CCCN2C[C@H](F)C3)nc2c(F)c(-c3ccc(F)c4sc(N)c(C#N)c34)c(C(F)(F)F)cc12)[C@@H]1C[C@H](C)N(C(=O)C2CC2)C1 (atropisomer, axis not shown) , result: 6.00 to 7.00

// pIC50 lookup, molecule = CCN(c1nc(OC[C@@]23CCCN2C[C@H](F)C3)nc2c(F)c(-c3ccc(F)c4sc(N)c(C#N)c34)c(C(F)(F)F)cc12)[C@H]1CCN(C(=O)[C@H](C)CF)C1 (atropisomer, axis not shown) , result: > 7.00

// pIC50 lookup, molecule = CCN(c1nc(OC[C@@]23CCCN2C[C@H](F)C3)nc2c(F)c(-c3ccc(F)c4sc(N)c(C#N)c34)c(C(F)(F)F)cc12)[C@H]1C[C@H](COC)N(C(C)=O)C1 (atropisomer, axis not shown) , result: > 7.00

// pIC50 lookup, molecule = CCN(c1nc(OC[C@@]23CCCN2C[C@H](F)C3)nc2c(F)c(-c3ccc(F)c4sc(N)c(C#N)c34)c(C(F)(F)F)cc12)[C@H]1CCN(C(=O)N2CC(C#N)C2)C1 (atropisomer, axis not shown) , result: > 7.00

// pIC50 lookup, molecule = CC1c2cc(C(=O)N(C)C)nn2CCN1c1nc(OCC23CCCN2CC(F)C3)nc2c(F)c(-c3ccc(F)c4sc(N)c(C#N)c34)c(C(F)(F)F)cc12 (stereo not drawn) [Compound 701] , result: 5.00 to 6.00

// pIC50 lookup, molecule = CCN(c1nc(OC[C@@]23CCCN2C[C@H](F)C3)nc2c(F)c(-c3ccc(F)c4sc(N)c(C#N)c34)c(C(F)(F)F)cc12)[C@H]1CCN(C(=O)c2ccns2)C1 (atropisomer, axis not shown) , result: > 7.00

// pIC50 lookup, molecule = CCN(c1nc(OC[C@]23CCCN2C[C@H](F)C3)nc2c(F)c(-c3ccc(F)c4sc(N)c(C#N)c34)c(C(F)(F)F)cc12)[C@H]1CCN(C(=O)C(C)C)C1 , result: > 7.00

Field: next molecule
// pIC50 lookup, molecule = [2H]C1([2H])OC(=O)N2C[C@@H](N(CC)c3nc(OC[C@@]45CCCN4C[C@H](F)C5)nc4c(F)c(-c5ccc(F)c6sc(N)c(C#N)c56)c(C(F)(F)F)cc34)C[C@H]21 (atropisomer, axis not shown) , result: > 7.00
